# SYSTEM_TESTED: T1, SNTA1, Q13424
# T1 sequence (Q13424 82-180, limits assumed, looked up): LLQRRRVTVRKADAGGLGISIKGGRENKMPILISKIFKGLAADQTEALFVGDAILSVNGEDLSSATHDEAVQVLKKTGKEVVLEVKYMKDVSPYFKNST
# EXPERIMENT_NOTES: holdup assay
# Design: key: below the threshold = too weak to quantify, mostly under pKd 3.1 to 4
# CONDITION: plain residues with an end cap or a label only (N-terminal biotin on a linker: ado-ado)
READOUT: pKd
One number for each entry.

TGLWKHETTV [ADGRA3, Q8IWK6] | 4.58

Now look at this one.
If you can, please state the reported pKd value of QSYPSKHDYV [CLDN18, P56856] .
3.58

These entries and their values trace back to paper PMC9482650.
